# Tested on: Human betaherpesvirus 5
# ASSAY_SUMMARY: Antiviral activity against HCMV infected in HEL cells assessed as inhibition of virus-induced cytopathic effect after 6 days
# Assay type: functional, organism-based
# APPLIED_CONDITIONS: Human betaherpesvirus 5, HEL, 144 h
REPORTED_METRIC: EC50 (µM)
Respond with the bare value in µM.

Result for Nc1ncnc2c1ncn2CC1(CO)CC=CC1 , tested on Human betaherpesvirus 5, EC50: 78.1

====

# SYSTEM_NAME: Inosine-adenosine-guanosine-nucleoside hydrolase (Trypanosoma brucei brucei)
# Sequence (O15727 whole entry): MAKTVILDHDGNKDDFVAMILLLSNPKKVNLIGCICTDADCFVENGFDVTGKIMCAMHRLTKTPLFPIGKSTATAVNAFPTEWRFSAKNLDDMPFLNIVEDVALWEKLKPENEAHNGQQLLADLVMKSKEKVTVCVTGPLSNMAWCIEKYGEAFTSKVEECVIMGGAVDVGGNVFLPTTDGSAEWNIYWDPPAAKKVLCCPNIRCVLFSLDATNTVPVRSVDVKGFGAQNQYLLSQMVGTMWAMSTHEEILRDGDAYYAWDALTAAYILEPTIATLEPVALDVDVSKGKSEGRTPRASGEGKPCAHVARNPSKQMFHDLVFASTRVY
Could you please report measured pKi for the items listed next?
Schema: pKi number; meaning minus log10 of the concentration expressed in molar units.

According to the records, this molecule Nc1ncnc2c1N=CC2[C@@H]1N[C@H](CO)[C@@H](O)[C@H]1O (some centres undefined) displays pKi of 8.52

According to the records, this molecule Nc1ncnc2c1ncn2C[C@@H]1N[C@H](CO)[C@@H](O)[C@H]1O displays pKi of 5.44

According to the records, this molecule Nc1nc(O)c2ncn(C[C@@H]3N[C@H](CO)[C@@H](O)[C@H]3O)c2n1 displays pKi of 5.44

According to the records, this molecule OC[C@H]1N[C@@H](Cn2cnc3c(O)ncnc32)[C@H](O)[C@@H]1O displays pKi of 5.44
